Cited source for all entries: a collection of fitness landscapes (doi:10.1126/science.1257360)

# enrichment ratio listing for each entry below
B1: PhoQ; a variant is named by its letters at X, in order, P23837 (parent)
chain: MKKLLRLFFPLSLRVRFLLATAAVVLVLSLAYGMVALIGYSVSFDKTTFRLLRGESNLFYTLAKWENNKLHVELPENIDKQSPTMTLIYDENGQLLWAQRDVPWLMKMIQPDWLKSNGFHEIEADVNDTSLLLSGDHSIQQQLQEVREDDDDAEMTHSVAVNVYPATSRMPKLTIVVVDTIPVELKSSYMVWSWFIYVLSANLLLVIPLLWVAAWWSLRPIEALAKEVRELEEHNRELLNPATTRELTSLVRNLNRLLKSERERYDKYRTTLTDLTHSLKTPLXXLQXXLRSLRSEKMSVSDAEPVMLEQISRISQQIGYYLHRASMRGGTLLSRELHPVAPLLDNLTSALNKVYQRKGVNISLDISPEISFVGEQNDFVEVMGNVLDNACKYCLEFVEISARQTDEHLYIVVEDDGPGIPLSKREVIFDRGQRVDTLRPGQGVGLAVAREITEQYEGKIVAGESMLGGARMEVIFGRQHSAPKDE

variants of: B1; experiment: enrichment ratio after two sorts for PhoP signalling (ratio (wild type AVST 3.29)); higher = more functional; details: with PhoP (E. coli)
Whole data set: some 140,000 sequences, median “enrichment ratio after two sorts for PhoP signalling” near 0, cut for the highest 2% near 11. For the sample, the highest values were picked, then their nearest neighbours and some sequences at random.

# MUTATION CODE, enrichment ratio
rows = [
    ("ALCG", 4.5),
    ("TMSK", "≤ 0.25"),
    ("KQLE", "≤ 0.25"),
    ("DSVD", "≤ 0.25"),
    ("RRLA", "≤ 0.25"),
    ("LEWL", "≤ 0.25"),
    ("TMVG", "≤ 0.25"),
    ("AFKV", "≤ 0.25"),
    ("DCCE", "≤ 0.25"),
    ("SFVK", "≤ 0.25"),
    ("RAKA", "≤ 0.25"),
    ("AKGF", "≤ 0.25"),
    ("PAHY", "≤ 0.25"),
    ("KFML", "≤ 0.25"),
    ("PCTP", "≤ 0.25"),
    ("FDQC", "≤ 0.25"),
    ("GVSL", 5.42),
    ("CFVH", "≤ 0.25"),
    ("TMWG", "≤ 0.25"),
    ("VTWM", "≤ 0.25"),
    ("GMPK", "≤ 0.25"),
    ("LTCN", "≤ 0.25"),
    ("MMMT", "≤ 0.25"),
    ("NFLN", 0.688),
    ("TMSI", 14.2),
    ("WKRD", "≤ 0.25"),
    ("YESY", "≤ 0.25"),
    ("TPKM", "≤ 0.25"),
    ("DWSK", "≤ 0.25"),
    ("TDCN", 15.7),
    ("HMQF", "≤ 0.25"),
    ("YTEA", "≤ 0.25"),
    ("WFPK", "≤ 0.25"),
    ("SFVQ", "≤ 0.25"),
    ("SVWQ", "≤ 0.25"),
    ("NDHH", "≤ 0.25"),
    ("AWQV", "≤ 0.25"),
    ("DMSI", "≤ 0.25"),
    ("TMMG", 23.4),
    ("ASCN", 15.3),
    ("RPPR", "≤ 0.25"),
    ("SGCN", 11.5),
    ("SGLN", 10.9),
    ("ASLN", 9.05),
    ("VRCN", "≤ 0.25"),
    ("GFHH", "≤ 0.25"),
]
